# tested_on: Muscarinic acetylcholine receptor M3 (Homo sapiens, UniProt P20309)
# Sequence (P20309 whole entry): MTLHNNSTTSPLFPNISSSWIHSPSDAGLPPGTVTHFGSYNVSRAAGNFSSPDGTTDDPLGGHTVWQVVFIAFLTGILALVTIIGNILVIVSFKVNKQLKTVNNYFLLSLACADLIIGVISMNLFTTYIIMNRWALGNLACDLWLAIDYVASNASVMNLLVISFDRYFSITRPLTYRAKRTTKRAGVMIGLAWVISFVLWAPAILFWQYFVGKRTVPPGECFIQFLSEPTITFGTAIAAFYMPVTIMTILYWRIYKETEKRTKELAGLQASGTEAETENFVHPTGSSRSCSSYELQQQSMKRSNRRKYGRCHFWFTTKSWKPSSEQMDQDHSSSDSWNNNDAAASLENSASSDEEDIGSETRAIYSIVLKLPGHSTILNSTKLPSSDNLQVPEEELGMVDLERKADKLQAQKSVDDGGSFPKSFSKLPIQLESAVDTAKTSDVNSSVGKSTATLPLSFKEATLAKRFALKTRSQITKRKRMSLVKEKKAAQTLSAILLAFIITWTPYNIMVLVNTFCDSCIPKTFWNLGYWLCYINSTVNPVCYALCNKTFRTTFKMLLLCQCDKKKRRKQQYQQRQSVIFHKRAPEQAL
# experiment_notes: Displacement of [3H]-N-methyl scopolamine from muscarinic acetylcholine M3 receptor expressed in CHO cell membrane
# Type: cell membranes

structure_smiles_string | unit_annotation | Ki
C=CCCCC[N@+]1(C)C2CCC1C[C@H](CC(C#N)(c1ccccc1)c1ccccc1)C2.[Br-] | nM | 0.16

* * *

# tested_on: Muscarinic acetylcholine receptor M1 (Homo sapiens, UniProt P11229)
# Sequence (P11229 whole entry): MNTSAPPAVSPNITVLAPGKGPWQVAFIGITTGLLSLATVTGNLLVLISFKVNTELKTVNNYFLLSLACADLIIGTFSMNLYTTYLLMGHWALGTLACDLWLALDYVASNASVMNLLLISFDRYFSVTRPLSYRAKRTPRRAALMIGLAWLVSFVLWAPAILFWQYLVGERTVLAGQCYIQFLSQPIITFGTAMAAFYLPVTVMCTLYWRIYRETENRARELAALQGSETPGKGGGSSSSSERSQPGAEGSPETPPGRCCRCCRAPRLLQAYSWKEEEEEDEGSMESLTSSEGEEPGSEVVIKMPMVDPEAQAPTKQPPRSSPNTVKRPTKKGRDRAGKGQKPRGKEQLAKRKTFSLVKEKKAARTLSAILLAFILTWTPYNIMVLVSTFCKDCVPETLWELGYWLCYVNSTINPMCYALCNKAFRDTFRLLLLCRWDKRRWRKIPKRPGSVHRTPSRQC
readout: Ki (nM)

structure_smiles_string | unit_annotation | value
C=CCCCC[N@+]1(C)C2CCC1C[C@H](CC(C#N)(c1ccccc1)c1ccccc1)C2.[Br-] | nM | 0.12

* * *

# tested_on: Muscarinic acetylcholine receptor M3 (Homo sapiens, UniProt P20309)
# experiment_notes: Antagonist potency at human muscarinic acetylcholine M3 receptor expressed in CHO cells assessed as inhibition of Ach-induced calcium mobilization by FLIPR analysis relative to control
# Format: functional, cell-based
# conditions_used: read-out: pA2 (converted)
// reported Kb per item
readout: Kb

compound | readout | value
C=CC[N+]1(C)[C@@H]2CC[C@H]1C[C@@H](CC(C#N)(c1ccccc1)c1ccccc1)C2 (mixture of isomers) | Kb | 1.26 nM
C[N+]1(CCO)[C@@H]2CC[C@H]1C[C@@H](CC(C#N)(c1ccccc1)c1ccccc1)C2 (mixture of isomers) | Kb | 0.158 nM
C[N@+]1(CCCc2ccccc2)C2CCC1C[C@@H](CC(C#N)(c1ccccc1)c1ccccc1)C2 | Kb | < 0.01 nM
CCCCCC[N@+]1(C)C2CCC1C[C@H](CC(C#N)(c1ccccc1)c1ccccc1)C2 | Kb | < 0.01 nM
C=CCCCC[N@+]1(C)C2CCC1C[C@H](CC(C#N)(c1ccccc1)c1ccccc1)C2 | Kb | < 0.01 nM
CCCC[N@+]1(C)C2CCC1C[C@H](CC(C#N)(c1ccccc1)c1ccccc1)C2 | Kb | < 0.01 nM
CCCCCCCC[N@+]1(C)C2CCC1C[C@H](CC(C#N)(c1ccccc1)c1ccccc1)C2 | Kb | 0.0794 nM
CC[N+]1(C)[C@@H]2CC[C@H]1C[C@@H](CC(C#N)(c1ccccc1)c1ccccc1)C2 (mixture of isomers) | Kb | 0.0501 nM

* * *

# tested_on: Muscarinic acetylcholine receptor M3 (Homo sapiens, UniProt P20309)
# experiment_notes: Antagonist potency at human muscarinic acetylcholine M3 receptor expressed in CHO cells assessed as inhibition of Ach-induced calcium mobilization by FLIPR analysis relative to control
# Assay type: functional, cell-based
# conditions_used: read-out: pA2 (converted)
Listed here are compounds together with their documented log10(Kb).
readout: log10(Kb) (log10 of the value in pM)

compound | log10(Kb)
COCC[N+]1(C)[C@@H]2CC[C@H]1C[C@@H](CC(C#N)(c1ccccc1)c1ccccc1)C2 (mixture of isomers) | 2.70
C[N+]1(CC2CC2)[C@@H]2CC[C@H]1C[C@@H](CC(C#N)(c1ccccc1)c1ccccc1)C2 (mixture of isomers) | 1.70
C[N@+]1(CCCOCc2ccccc2)C2CCC1C[C@@H](CC(C#N)(c1ccccc1)c1ccccc1)C2 | 1.60
COCCOCC[N+]1(C)[C@@H]2CC[C@H]1C[C@@H](CC(C#N)(c1ccccc1)c1ccccc1)C2 (mixture of isomers) | 2.80
C[N+]1(CCCC#N)[C@@H]2CC[C@H]1C[C@@H](CC(C#N)(c1ccccc1)c1ccccc1)C2 (mixture of isomers) | 2.20
C[N@+]1(CC2CC2)C2CCC1C[C@@H](CC(C#N)(c1ccccc1)c1ccccc1)C2 | 1.40
CCC[N+]1(C)[C@@H]2CC[C@H]1C[C@@H](CC(C#N)(c1ccccc1)c1ccccc1)C2 (mixture of isomers) | 1.70

* * *

# experiment_notes: Plasma clearance in rat at 1 mg/kg, iv
# Format: ADME, organism-based
# Set-up: dose 1 mg/kg, route intravenous
readout: clearance

structure_smiles_string | readout | value
C=CCCCC[N@+]1(C)C2CCC1C[C@H](CC(C#N)(c1ccccc1)c1ccccc1)C2.[Br-] | clearance | 125 mL/min/kg

* * *

# tested_on: Muscarinic acetylcholine receptor M3 (Homo sapiens)
# experiment_notes: Antagonist potency at human muscarinic acetylcholine M3 receptor expressed in CHO cells assessed as inhibition of Ach-induced calcium mobilization by FLIPR analysis relative to control
# Type: functional, cell-based
# conditions_used: read-out: pA2 (converted)
readout: Kb

structure_smiles_string | readout | value
C[N@+]1(CCOc2ccccc2)C2CCC1C[C@@H](CC(C#N)(c1ccccc1)c1ccccc1)C2 | Kb | < 0.01 nM
C[N@+]1(CCCOc2ccccc2)C2CCC1C[C@@H](CC(C#N)(c1ccccc1)c1ccccc1)C2 | Kb | < 0.01 nM
C[N@+]1(CCOCc2ccccc2)C2CCC1C[C@@H](CC(C#N)(c1ccccc1)c1ccccc1)C2 | Kb | < 0.01 nM
